- Test system: Shigella sonnei
- measurement protocol: Broth dilution MIC (CLSI)
- Type: cell-based
- assay context: read-out: MIC
outcome measure: MIC

State its MIC: COC(=O)[C@@H]1CCC(=O)N1Cc1cc2ccc(OC)cc2c2cc(OC)c(OC)cc12 [PP1S]
> 100 µg/mL

State its MIC: COC(=O)[C@@H]1CCC(=O)N1Cc1cc2ccc(OCc3ccccc3)cc2c2cc(OC)c(OC)cc12 [PP3S]
> 100 µg/mL

State its MIC: NNC(=O)c1ccncc1 [INH, isoniazid, reference compound]
> 100 µg/mL

State its MIC: CCCCOc1ccc2cc(CN3C(=O)CC[C@H]3C(=O)OC)c3cc(OC)c(OC)cc3c2c1 [PP2S]
> 100 µg/mL

State its MIC: [H]/N=C(/N)N[C@H]1[C@H](O)[C@@H](O)[C@H](O[C@@H]2O[C@@H](C)[C@](O)(C=O)[C@H]2O[C@@H]2O[C@@H](CO)[C@H](O)[C@@H](O)[C@@H]2NC)[C@@H](N/C(N)=N\[H])[C@@H]1O [STR, streptomycin]
3.1 µg/mL

---

Assignment: determine reported CC50 for the given compounds.
- Tested on: L929 murine fibroblasts
- measurement protocol: in vitro
- Type: cell-based
- assay context: L929, MTT assay (Table S1)

State its CC50: COC(=O)/C(=C/c1ccc(OCc2ccccc2)cc1)c1ccc(OC)c(OC)c1
>100 µg/mL

State its CC50: COc1ccc(/C(=C\c2ccc(OCc3ccccc3)cc2)C(=O)O)cc1OC
>100 µg/mL

State its CC50: CCCCOc1ccc(/C=C(/C(=O)O)c2ccc(OC)c(OC)c2)cc1
89.5 µg/mL

State its CC50: CCCCOc1ccc(/C=C(/C(=O)OC)c2ccc(OC)c(OC)c2)cc1
>100 µg/mL

---

- Tested on: M. marseiliense
- measurement protocol: microbe, parasite or virus in culture
- Assay type: cell-based
- assay context: Mycobacterium
outcome measure: MIC

State its MIC: CCCCOc1ccc2cc(CN3C(=O)CC[C@H]3C(=O)OC)c3cc(OC)c(OC)cc3c2c1
> 100 µg/mL

State its MIC: [H]/N=C(/N)N[C@H]1[C@H](O)[C@@H](O)[C@H](O[C@@H]2O[C@@H](C)[C@](O)(C=O)[C@H]2O[C@@H]2O[C@@H](CO)[C@H](O)[C@@H](O)[C@@H]2NC)[C@@H](N/C(N)=N\[H])[C@@H]1O
25 µg/mL

State its MIC: CC[C@@H](CO)NCCN[C@@H](CC)CO
100 µg/mL

State its MIC: NC(=O)c1cnccn1 [PZA, pyrazinamide]
> 100 µg/mL

State its MIC: COC(=O)[C@@H]1CCC(=O)N1Cc1cc2ccc(OC)cc2c2cc(OC)c(OC)cc12
> 100 µg/mL

State its MIC: COC(=O)[C@@H]1CCC(=O)N1Cc1cc2ccc(OCc3ccccc3)cc2c2cc(OC)c(OC)cc12
> 100 µg/mL

State its MIC: NNC(=O)c1ccncc1 [INH, isoniazid, reference compound]
> 100 µg/mL

State its MIC: CO[C@H]1/C=C/O[C@@]2(C)Oc3c(C)c(O)c4c(O)c(c(/C=N/N5CCN(C)CC5)c(O)c4c3C2=O)NC(=O)/C(C)=C\C=C\[C@H](C)[C@H](O)[C@@H](C)[C@@H](O)[C@@H](C)[C@H](OC(C)=O)[C@@H]1C [RIF, rifampicin, reference compound]
> 100 µg/mL

Numbers sourced from paper PMC9154192.
